Label scheme for melting point: lower than 100 °C is n, 100 °C and above is y.

[[record]]
compound = "CCCCCCn1c(SC(CC)C(=O)OCC)nc2c1c(=O)[nH]c(=O)n2C (racemic)"
category = "n"

[[record]]
compound = "CCOC(=O)C(CC)Sc1nc2c(c(=O)n(CC#N)c(=O)n2C)n1Cc1cccc(Br)c1 (racemic)"
category = "n"

[[record]]
compound = "CCOC(=O)C(CC)Sc1nc2c(c(=O)n(C)c(=O)n2C)n1Cc1ccccc1 (racemic)"
category = "n"

[[record]]
compound = "CCOC(=O)C(CC)Sc1nc2c(c(=O)[nH]c(=O)n2C)n1CC(C)C (racemic)"
category = "y"

[[record]]
compound = "CCOC(=O)C(CC)Sc1nc2c(c(=O)n(CCOC)c(=O)n2C)n1Cc1cccc(Br)c1 (racemic)"
category = "n"

[[record]]
compound = "CCOC(=O)C(CC)Sc1nc2[nH]c(=O)[nH]c(=O)c2n1Cc1cccc(Br)c1 (racemic)"
category = "n"

[[record]]
compound = "CCC(Sc1nc2c(c(=O)[nH]c(=O)n2C)n1Cc1cccc(Br)c1)C(N)=O (racemic)"
category = "y"

[[record]]
compound = "CCCCn1c(SC(CC)C(N)=O)nc2c1c(=O)[nH]c(=O)n2C (racemic)"
category = "y"

[[record]]
compound = "CCOC(=O)C(CC)Sc1nc2c(c(=O)[nH]c(=O)n2C)n1Cc1cccc(OC)c1 (racemic)"
category = "y"

[[record]]
compound = "CCOC(=O)C(CC)Sc1nc2c(c(=O)[nH]c(=O)n2C)n1Cc1c(C)noc1C (racemic)"
category = "y"

[[record]]
compound = "CCOC(=O)C(CC)Sc1nc2c(c(=O)[nH]c(=O)n2C)n1Cc1ccc(S(N)(=O)=O)cc1 (racemic)"
category = "y"

[[record]]
compound = "CCOC(=O)C(CC)Sc1nc2c(c(=O)n(C)c(=O)n2C)n1Cc1cccc(Br)c1 (racemic)"
category = "n"

[[record]]
compound = "CCC(CC)Sc1nc2c(c(=O)[nH]c(=O)n2C)n1Cc1cccc(Br)c1"
category = "y"

[[record]]
compound = "CCOC(=O)C(CC)Sc1nc2c(c(=O)[nH]c(=O)n2C)n1Cc1cccc([N+](=O)[O-])c1 (racemic)"
category = "y"

